Please provide measured pEC50 for the entries that follow.
tested on: Measles morbillivirus; experiment: Antiviral activity against Measles virus; format: functional, organism-based
Give bare numbers, as −log10 of the molar value.

COc1ccc(-n2c(SC(C)C(=O)Nc3ncc(Cl)cc3Cl)nc3ccccc32)cc1 (stereo not drawn) ... 6.70
O=C(CSc1nc2ccccc2n1-c1ccccc1)Nc1ncc(Cl)cc1Cl ... 6.15

Below: the item to evaluate.
Return pEC50 measured with Measles morbillivirus given this molecule: Cc1cccc(-n2c(SCC(=O)Nc3ncc(Cl)cc3Cl)nc3ccccc32)c1
5.68

====

system: Respiratory syncytial virus; assay: Antiviral activity against Respiratory syncytial virus; type: functional, organism-based; conditions: human respiratory syncytial virus
Measured Quantity: EC50 (nM)
Give bare numbers, in nM.

Return reported EC50; argument: COc1ccc(-n2c(SC(C)C(=O)Nc3ccc(C)cc3Cl)nc3ccccc32)cc1 (racemic)
10
